Fold-Improved (FpA): recorded values
Biological target: Human plasma purified α-thrombin (Homo sapiens, UniProt P00734)
Test: Thrombin cleavage kinetics of quenched fluorescence (QF) peptide substrates, progress curve
Format: biochemical
Conditions: kcat/KM relative to FpA substrate Lys(Dnp)-DFLAEGGGVRIVGG-Lys(Abz)
Where no end group is shown, it is not given here. The star is where a group is joined. Dnp = O=[N+]([O-])c1ccc(*)c([N+](=O)[O-])c1; 2Abz = Nc1ccccc1C(=O)O
Note: the reply should be a number with no unit written.

# Fold-Improved (FpA) measured on Human plasma purified α-thrombin (Homo sapiens, UniProt P00734) for item Thrombin (2): QF substrate Lys(Dnp)-X10-X1-IVGG-Lys(Abz), X10-X1 = SEYQTFFNPR (K(Dnp)SEYQTFFNPRIVGGK(Abz)) = 48.7

# Fold-Improved (FpA) measured on Human plasma purified α-thrombin (Homo sapiens, UniProt P00734) for item Factor VIII (2): QF substrate Lys(Dnp)-X10-X1-IVGG-Lys(Abz), X10-X1 = YDEDENQSPR (K(Dnp)YDEDENQSPRIVGGK(2Abz)) = 2.3

# Fold-Improved (FpA) measured on Human plasma purified α-thrombin (Homo sapiens, UniProt P00734) for item Factor XIII: QF substrate Lys(Dnp)-X10-X1-IVGG-Lys(Abz), X10-X1 = TVELQGVVPR (K(Dnp)TVELQGVVPRIVGGK(Abz)) = 28.7
